System: CAL-51
CONDITION DESCRIPTION: 72 h
QUANTITY MEASURED: EC50, CellTox Green (nM)

COC1=CC(c2cc3ccccc3[nH]2)=N/C1=C\c1[nH]c(C)cc1C
2640
O=c1[nH]c(=O)n([C@H]2C[C@H](O)[C@@H](CO)O2)cc1F
734
COc1c(C)cnc(Cn2cnc3c(Cl)nc(N)nc32)c1C
758
COC1=C2C[C@@H](C)C[C@H](OC)[C@H](O)[C@@H](C)/C=C(\C)[C@H](OC(N)=O)[C@@H](OC)/C=C\C=C(/C)C(=O)NC(=CC1=O)C2=O
8440
CC(C)C[C@H](NC(=O)[C@H](Cc1ccccc1)NC(=O)c1cnccn1)B(O)O
27.5
COc1ccc(C2=N[C@@H](c3ccc(Cl)cc3)[C@@H](c3ccc(Cl)cc3)N2C(=O)N2CCNC(=O)C2)c(OC(C)C)c1
252

###

Measured normalised response values are reported for all entries that follow.
Tested on: DU-4475
TEST: normalised response (% of control), CellTiter-Glo; higher = more viable cells (100 = DMSO, 0 = benzethonium chloride kill control)
CONDITION DESCRIPTION: incubation time: 72 h
QUANTITY MEASURED: normalised response (%)

C[C@@]1(C(=O)Nc2ccc(F)nc2)CCCN1c1nc(Nc2cc(C3CC3)n[nH]2)c2cccn2n1 (10 nM)
99.5
CCCC(CCC)C(=O)O [Valproic acid] (100 nM)
96.2
COC1=CC(c2cc3ccccc3[nH]2)=N/C1=C\c1[nH]c(C)cc1C [Obatoclax] (1000 nM)
89.7
CN(c1ccccc1CNc1nc(Nc2ccc3c(c2)CC(=O)N3)ncc1C(F)(F)F)S(C)(=O)=O (1000 nM)
84.8
COc1cccc2c1C(=O)c1c(O)c3c(c(O)c1C2=O)C[C@@](O)(C(C)=O)C[C@@H]3O[C@H]1C[C@H](N)[C@H](O)[C@H](C)O1 [Daunorubicin] (100 nM)
86.9
O=C(c1ccc(OCCN2CCCCC2)cc1)c1c(-c2ccc(O)cc2)sc2cc(O)ccc12 [Raloxifene] (1000 nM)
103
CC(C)C[C@H](NC(=O)[C@H](Cc1ccccc1)NC(=O)c1cnccn1)B(O)O [Bortezomib] (0.1 nM)
103
CC(C)(C)c1cc(NC(=O)Nc2ccc(-c3cn4c(n3)sc3cc(OCCN5CCOCC5)ccc34)cc2)no1 [Quizartinib] (100 nM)
104
COC(=O)C[C@](O)(CCCC(C)(C)O)C(=O)O[C@@H]1C(OC)=C[C@]23CCCN2CCc2cc4c(cc2[C@H]13)OCO4 [Omacetaxine] (1 nM)
96
COC1=CC(c2cc3ccccc3[nH]2)=N/C1=C\c1[nH]c(C)cc1C [Obatoclax] (1 nM)
100
COc1cc(Nc2ncc(F)c(Nc3ccc4c(n3)NC(=O)C(C)(C)O4)n2)cc(OC)c1OC [Tamatinib] (10 nM)
106
CC(C)C[C@H](NC(=O)[C@H](Cc1ccccc1)NC(=O)c1cnccn1)B(O)O [Bortezomib] (1 nM)
101
O=C(c1ccc(OCCN2CCCCC2)cc1)c1c(-c2ccc(O)cc2)sc2cc(O)ccc12 [Raloxifene] (1 nM)
102
COc1c(C)cnc(Cn2cnc3c(Cl)nc(N)nc32)c1C [BIIB021] (1 nM)
103
C[C@@H]1C=C2C(=O)O[C@@H]3CC[C@H](C1)[C@]23O [Galiellalactone] (50 nM)
105
